Target: ABCC4 (Homo sapiens, UniProt O15439)
Test: biochemical
Format: biochemical
Conditions: 32°C; Table 3; read-out: ABCC5 IC50 (Table 3)
Description: Freshly collected EDTA blood from healthy donors (n = 35) was prepared at 0°C–4°C, starting by separating the erythrocytes from plasma by centrifugation at 2,300 g for approximately 15 min. […] The resulting collection of radioactivity upon the filter, was later quantified by using a Packard TopCount NXT (Packard, Downers Grove, IL, United states) after adding scintillation fluid (MicroScint-O, PerkinElmer, Groningen, Netherlands). […]
measurement-name: pIC50
To interpret pIC50, take it as minus log10 of a concentration measured in moles per litre.

Give ABCC4 (Homo sapiens, UniProt O15439) pIC50 for C[C@@H]1CC(=O)NN=C1c1ccc(NN=C(C#N)C#N)cc1 [Levosimendan] 4.78

* * *

Biological target: UniProt:O15439
Sequence (O15439 1-1325): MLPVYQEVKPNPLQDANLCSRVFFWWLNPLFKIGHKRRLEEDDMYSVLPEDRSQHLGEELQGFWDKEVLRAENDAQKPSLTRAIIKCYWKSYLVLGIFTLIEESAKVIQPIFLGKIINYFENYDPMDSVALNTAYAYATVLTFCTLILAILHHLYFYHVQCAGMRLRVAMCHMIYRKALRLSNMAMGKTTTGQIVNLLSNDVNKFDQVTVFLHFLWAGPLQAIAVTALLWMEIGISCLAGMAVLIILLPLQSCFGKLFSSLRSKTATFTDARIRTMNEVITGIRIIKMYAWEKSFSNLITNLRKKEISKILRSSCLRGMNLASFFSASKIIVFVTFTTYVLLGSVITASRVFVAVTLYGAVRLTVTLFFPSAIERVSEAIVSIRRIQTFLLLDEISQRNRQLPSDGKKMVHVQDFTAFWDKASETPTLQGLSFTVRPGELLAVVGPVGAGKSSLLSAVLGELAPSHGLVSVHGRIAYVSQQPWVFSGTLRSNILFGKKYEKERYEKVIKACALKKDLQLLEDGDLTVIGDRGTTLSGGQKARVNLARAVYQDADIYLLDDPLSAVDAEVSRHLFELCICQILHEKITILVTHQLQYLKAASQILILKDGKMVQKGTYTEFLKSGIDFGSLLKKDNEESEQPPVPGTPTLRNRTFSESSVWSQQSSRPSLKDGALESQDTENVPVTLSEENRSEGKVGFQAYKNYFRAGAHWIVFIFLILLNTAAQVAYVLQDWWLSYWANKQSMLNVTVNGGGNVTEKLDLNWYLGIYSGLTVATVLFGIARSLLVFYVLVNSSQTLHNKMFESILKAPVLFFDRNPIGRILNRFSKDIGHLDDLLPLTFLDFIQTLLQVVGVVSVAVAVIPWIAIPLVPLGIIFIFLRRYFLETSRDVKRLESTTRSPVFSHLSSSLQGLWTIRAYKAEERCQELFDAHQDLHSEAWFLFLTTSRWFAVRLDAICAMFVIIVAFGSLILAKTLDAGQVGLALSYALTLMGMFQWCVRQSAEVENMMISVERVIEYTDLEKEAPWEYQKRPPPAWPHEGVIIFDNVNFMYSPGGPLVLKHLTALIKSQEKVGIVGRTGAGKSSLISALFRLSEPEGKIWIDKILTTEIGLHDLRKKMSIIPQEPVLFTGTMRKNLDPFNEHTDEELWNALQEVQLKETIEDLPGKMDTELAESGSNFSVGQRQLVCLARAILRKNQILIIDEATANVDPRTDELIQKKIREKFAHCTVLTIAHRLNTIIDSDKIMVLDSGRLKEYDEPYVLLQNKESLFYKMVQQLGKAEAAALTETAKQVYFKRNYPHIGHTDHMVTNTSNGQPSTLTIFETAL
Assay: biochemical
Assay type: biochemical
Settings: 37°C; cAMP-efflux, inside-out vesicles; read-out: ABCC4 Ki
Protocol: Freshly collected EDTA blood from healthy donors (n = 35) was prepared at 0°C–4°C, starting by separating the erythrocytes from plasma by centrifugation at 2,300 g for approximately 15 min. […] The resulting collection of radioactivity upon the filter, was later quantified by using a Packard TopCount NXT (Packard, Downers Grove, IL, United states) after adding scintillation fluid (MicroScint-O, PerkinElmer, Groningen, Netherlands). […]
measurement-name: Ki (nM)
API: value field is a number in nM; no unit string.

Any idea what its Ki is? The molecule is Nc1cc(-c2ccncc2)c[nH]c1=O [Amrinone] 2820
